Data credit: patent US20250250357A1

Each entry below carries its recorded OD450.
- assay_target: T1, human MSLN-R3-his protein (human, UniProt Q13421 487-598)
- T1 construct: it is put last here; also called human MSLN-R3 protein; hMSLN-R3-his; not shown: His tag
- T1 sequence (Q13421 495-606): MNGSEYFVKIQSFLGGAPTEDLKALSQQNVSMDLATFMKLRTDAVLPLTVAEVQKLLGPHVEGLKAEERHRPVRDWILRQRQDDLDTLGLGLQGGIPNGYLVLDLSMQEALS
- assay_name: ELISA on coated antigen, no antibody (blank, column 'none')
Kindly provide the numeric value in OD only, without the unit symbol.

Examples from the recorded data:
S009-F7.65.13 (antibody, human IgG1, kappa, V domains shown, Human-murine chimeric antibody, human IgG1 heavy and kappa light constant regions) VH: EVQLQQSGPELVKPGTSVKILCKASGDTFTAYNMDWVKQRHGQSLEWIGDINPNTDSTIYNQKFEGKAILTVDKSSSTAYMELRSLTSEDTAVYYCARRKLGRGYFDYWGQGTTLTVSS VL: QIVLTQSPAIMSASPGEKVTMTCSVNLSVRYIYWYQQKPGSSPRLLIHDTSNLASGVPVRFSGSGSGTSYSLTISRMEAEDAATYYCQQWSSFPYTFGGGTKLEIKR : 0.07
S009-F7.44.20 (antibody, human IgG1, kappa, V domains shown, Human-murine chimeric antibody, human IgG1 heavy and kappa light constant regions) VH: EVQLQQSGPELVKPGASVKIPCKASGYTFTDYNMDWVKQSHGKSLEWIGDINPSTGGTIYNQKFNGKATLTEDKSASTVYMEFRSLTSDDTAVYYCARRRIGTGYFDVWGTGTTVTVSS VL: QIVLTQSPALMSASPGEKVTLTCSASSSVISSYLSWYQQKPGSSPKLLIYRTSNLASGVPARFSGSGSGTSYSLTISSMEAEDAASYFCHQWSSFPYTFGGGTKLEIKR : 0.06
S009-F7.48.1 (antibody, human IgG1, kappa, V domains shown, Human-murine chimeric antibody, human IgG1 heavy and kappa light constant regions) VH: QVQLQQPGTELVKPGASVKLSCKASGYTFTSYWMHWVKQRPGQGLEWIGNINPSNGGTNNNENFKSKATLTVDTSSSTAYMQLSSLTSEDSAVYYCVRNGYHGYWYFDVWGTGTTVTVSS VL: DIVMTQSQKFMSTSVGDRVSVTCKASQNVGTNVAWYQQQPGQSPKALIYSASYRYSGVPDRFTGSVSGTDFTLTISNVQSEDLAEYFCQQYNSYPLTFGGGTKLEIKR : 0.06

Specify OD450 for S009-F7.21.16 (antibody, human IgG1, kappa, V domains shown, Human-murine chimeric antibody, human IgG1 heavy and kappa light constant regions) VH: QVQLQQPGTELVKPGASVKLSCKASGYTFTTFWMHWVKQRPGQGLEWIGGVNPTNGGTNYNEKFRTKATLTVDKSSTTADMQLSSLTSEDSAVYYCAPHYISSRPGFAYWGQGTLVTVSG VL: DIVMTQSQKFMSTSGGDRVSVTCKASQNVGTNVAWYQQKPGQSPKALIYSASYRYSGVPDRFTGSGSGTDFILTISNVQSEDLAEYFCQQYNSYPLTFGGGTKLEIKR and stop.
0.08

Specify OD450 for S009-F7.26.15 (antibody, human IgG1, kappa, V domains shown, Human-murine chimeric antibody, human IgG1 heavy and kappa light constant regions) VH: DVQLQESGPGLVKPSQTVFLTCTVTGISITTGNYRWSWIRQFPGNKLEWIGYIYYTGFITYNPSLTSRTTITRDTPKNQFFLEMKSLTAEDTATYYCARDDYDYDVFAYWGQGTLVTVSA VL: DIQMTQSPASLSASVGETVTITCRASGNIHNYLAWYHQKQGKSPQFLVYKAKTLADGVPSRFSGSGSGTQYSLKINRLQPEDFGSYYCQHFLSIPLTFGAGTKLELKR and stop.
0.07
